Each recorded value in this set is attributed to BigSolDB 2.1.

- conditionInfo: in ethanol, 303.15 K
reportedProperty: solubility (mole fraction)
Response field accepts a number only; no unit should be typed.

// recorded solubility (mole fraction) for `O=[N+]([O-])N(CCO)CCO.O=[N+]([O-])O.O=[N+]([O-])O` : 0.0118

====

- conditionInfo: in acetone, 298.15 K
reportedProperty: solubility (mole fraction)
# respond with the number and nothing more

// sample `O=[N+]([O-])N(CCO)CCO.O=[N+]([O-])O.O=[N+]([O-])O` , its solubility (mole fraction) was 0.384

====

- conditionInfo: in methanol, 293.15 K
reportedProperty: solubility (mole fraction)

Looking up `O=[N+]([O-])N(CCO)CCO.O=[N+]([O-])O.O=[N+]([O-])O` , I found its solubility (mole fraction) recorded as 0.0076

====

- conditionInfo: in acetone, 293.15 K
reportedProperty: solubility (mole fraction)
Answer with the value's number alone.

The reported value for `O=[N+]([O-])N(CCO)CCO.O=[N+]([O-])O.O=[N+]([O-])O` in terms of solubility (mole fraction) is 0.321

====

- conditionInfo: in toluene, 293.15 K
reportedProperty: solubility (mole fraction)
Give a plain numeric answer without units written out.

solubility (mole fraction) for `O=[N+]([O-])N(CCO)CCO.O=[N+]([O-])O.O=[N+]([O-])O` is 0.0177

====

- conditionInfo: in ethanol, 293.15 K
reportedProperty: solubility (mole fraction)

Per the record, `O=[N+]([O-])N(CCO)CCO.O=[N+]([O-])O.O=[N+]([O-])O` has solubility (mole fraction) of 0.00751

====

- conditionInfo: in acetonitrile, 308.15 K
reportedProperty: solubility (mole fraction)
Answer field: number only, no words.

solubility (mole fraction) reading for `O=[N+]([O-])N(CCO)CCO.O=[N+]([O-])O.O=[N+]([O-])O` : 0.519

====

- conditionInfo: in DMSO, 283.15 K
reportedProperty: solubility (mole fraction)
Answer with a bare number; do not write a unit.

The compound `O=[N+]([O-])N(CCO)CCO.O=[N+]([O-])O.O=[N+]([O-])O` showed solubility (mole fraction) equal to 0.0407

====

- conditionInfo: in methanol, 313.15 K
reportedProperty: solubility (mole fraction)
I'd appreciate a reply containing only the number, no unit.

Lab note: measured solubility (mole fraction) of `O=[N+]([O-])N(CCO)CCO.O=[N+]([O-])O.O=[N+]([O-])O` was 0.0207

====

- conditionInfo: in acetone, 308.15 K
reportedProperty: solubility (mole fraction)
In your answer, state the number alone without any accompanying words.

Per the records, this molecule ( `O=[N+]([O-])N(CCO)CCO.O=[N+]([O-])O.O=[N+]([O-])O` ) has solubility (mole fraction) equal to 0.536
